inhibition at 10 µM values by entry
Target: rat central A2 adenosinergic receptors (Rattus norvegicus)
Construct: the striatum is removed from each of them (Bruns et al., 1986); from tissue; host or cells: rat striatum, homogenate (membrane preparation)
Sequence (P30543 whole entry): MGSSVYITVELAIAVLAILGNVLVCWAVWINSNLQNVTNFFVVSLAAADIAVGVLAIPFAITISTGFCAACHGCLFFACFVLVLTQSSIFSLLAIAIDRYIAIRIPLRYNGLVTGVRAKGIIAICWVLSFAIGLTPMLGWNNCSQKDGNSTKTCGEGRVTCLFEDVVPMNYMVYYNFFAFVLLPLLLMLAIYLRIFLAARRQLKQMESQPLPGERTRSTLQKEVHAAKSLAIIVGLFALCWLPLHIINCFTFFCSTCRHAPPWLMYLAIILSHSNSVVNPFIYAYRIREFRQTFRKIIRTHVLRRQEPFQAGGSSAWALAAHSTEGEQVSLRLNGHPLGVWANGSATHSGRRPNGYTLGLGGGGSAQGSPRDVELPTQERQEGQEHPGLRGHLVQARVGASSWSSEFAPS
Assay: Binding to adenosine A2 receptors ([3H] NECA displacement)
Details: 1E-5M; [3H] NECA 4 nM; n=3; read-out: % displacement of the labeled ligand, A2, 1E-5M

| molecule | unit_spec | inhibition at 10 µM |
| --- | --- | --- |
| Cc1ccc(C)c(Cn2cc(CCNc3ncnc4c3ncn4[C@@H]3O[C@H](C(=O)NC4CC4)[C@@H](O)[C@H]3O)c3cc(C)ccc32)c1 | % | 71 |
| Cc1ccc(C)c(Cn2c(C)c(CCNc3ncnc4c3ncn4[C@@H]3O[C@H](C(=O)NC4CC4)[C@@H](O)[C@H]3O)c3ccccc32)c1 | % | 60 |
| Cc1ccc(C)c(Cn2cc(CCNc3ncnc4c3ncn4[C@@H]3O[C@H](C(=O)NC4CC4)[C@@H](O)[C@H]3O)c3ccccc32)c1 | % | 84 |
| O=C(NC1CC1)[C@H]1O[C@@H](n2cnc3c(NCCc4cn(C5CCCC5)c5ccccc45)ncnc32)[C@H](O)[C@@H]1O | % | 90 |
| CC(C)n1cc(CCNc2ncnc3c2ncn3[C@@H]2O[C@H](C(=O)NC3CC3)[C@@H](O)[C@H]2O)c2ccccc21 | % | 91 |
| CC(Cc1cn(C2CCCC2)c2ccccc12)Nc1ncnc2c1ncn2[C@@H]1O[C@H](C(=O)NC2CC2)[C@@H](O)[C@H]1O (stereo partly drawn) | % | 85 |

---

Molecular target: rat central A2 adenosinergic receptors (Rattus norvegicus)
Construct: the striatum is removed from each of them (Bruns et al., 1986); from tissue; host or cells: rat striatum, homogenate (membrane preparation)
Experiment: Binding to adenosine A2 receptors ([3H] NECA displacement)
Conditions: 1E-5M; [3H] NECA 4 nM; n=3; read-out: % displacement of the labeled ligand, A2, 1E-5M

| molecule | inhibition at 10 µM (%) |
| --- | --- |
| Cc1ccc(C)c(Cn2cc(CC(C)Nc3ncnc4c3ncn4[C@@H]3O[C@H](C(=O)NC4CC4)[C@@H](O)[C@H]3O)c3ccccc32)c1 (stereo partly drawn) | 84 |
| COCCn1cc(CCNc2ncnc3c2ncn3[C@@H]2O[C@H](C(=O)NC3CC3)[C@@H](O)[C@H]2O)c2ccccc21 | 90 |
| O=C(NC1CC1)[C@H]1O[C@@H](n2cnc3c(NCCc4cn(Cc5ccc(Cl)cc5)c5ccccc45)ncnc32)[C@H](O)[C@@H]1O | 91 |
| Cc1ccc(Cn2cc(CCNc3ncnc4c3ncn4[C@@H]3O[C@H](C(=O)NC4CC4)[C@@H](O)[C@H]3O)c3ccccc32)cc1 | 89 |
| CN(C)CCn1cc(CCNc2ncnc3c2ncn3[C@@H]2O[C@H](C(=O)NC3CC3)[C@@H](O)[C@H]2O)c2ccccc21 | 94 |
| O=C(NC1CC1)[C@H]1O[C@@H](n2cnc3c(NCCc4cn(CCN5CCOCC5)c5ccccc45)ncnc32)[C@H](O)[C@@H]1O | 90 |
| COc1ccc2c(c1)c(CCNc1ncnc3c1ncn3[C@@H]1O[C@H](C(=O)NC3CC3)[C@@H](O)[C@H]1O)cn2Cc1cc(C)ccc1C | 91 |
| Cc1ccc(Cn2cc(CCNc3ncnc4c3ncn4[C@@H]3O[C@H](C(=O)NC4CC4)[C@@H](O)[C@H]3O)c3ccccc32)cc1C | 83 |
| O=C(NC1CC1)[C@H]1O[C@@H](n2cnc3c(NCCc4cn(CCN5CCCCC5)c5ccccc45)ncnc32)[C@H](O)[C@@H]1O [Example 71 (citrate)] | 96 |

---

Biological target: rat central A1 adenosinergic receptors (Rattus norvegicus, UniProt P25099)
Construct: After the animal has been sacrificed by decapitation, the brain is quickly removed and washed in cold isotonic solution; from tissue; host or cells: rat brain, membrane preparation from the two hemispheres
Test: Binding to adenosine A1 receptors ([3H] PIA displacement)
Settings: 1E-5M; [3H] PIA 2.5 nM; n=3; read-out: % displacement of the labeled ligand, A1, 1E-5M
Experimental: The affinity of the products of the Examples for the rat central A1 and A2 adenosinergic receptors is determined by the competitive technique using a radioactive ligand specifically bound either to the A1 receptors ([^3 H] PIA) or to the A2 receptors ([^3 H] NECA). […] The filters are then transferred to counting flasks and 10 ml of liquid scintillator (Ready Solv HP/b, Beckman) are added. […]

| compound | assay_system | inhibition at 10 µM (%) |
| --- | --- | --- |
| O=C(NC1CC1)[C@H]1O[C@@H](n2cnc3c(NCCc4cn(CCN5CCCCC5)c5ccccc45)ncnc32)[C@H](O)[C@@H]1O [Example 71 (citrate)] | rat central A1 adenosinergic receptors (Rattus norvegicus, UniProt P25099) | 99 |
| Cc1ccc(C)c(Cn2c(C)c(CCNc3ncnc4c3ncn4[C@@H]3O[C@H](C(=O)NC4CC4)[C@@H](O)[C@H]3O)c3ccccc32)c1 [Example 87] | rat central A1 adenosinergic receptors (Rattus norvegicus, UniProt P25099) | 56 |
| O=C(NC1CC1)[C@H]1O[C@@H](n2cnc3c(NCCc4cn(Cc5ccc(Cl)cc5)c5ccccc45)ncnc32)[C@H](O)[C@@H]1O [Example 61] | rat central A1 adenosinergic receptors (Rattus norvegicus, UniProt P25099) | 98 |
| Cc1ccc(C)c(Cn2cc(CC(C)Nc3ncnc4c3ncn4[C@@H]3O[C@H](C(=O)NC4CC4)[C@@H](O)[C@H]3O)c3ccccc32)c1 (stereo partly drawn) [Example 92] | rat central A1 adenosinergic receptors (Rattus norvegicus, UniProt P25099) | 96 |
| CC(C)n1cc(CCNc2ncnc3c2ncn3[C@@H]2O[C@H](C(=O)NC3CC3)[C@@H](O)[C@H]2O)c2ccccc21 [Example 65] | rat central A1 adenosinergic receptors (Rattus norvegicus, UniProt P25099) | 87 |
| O=C(NC1CC1)[C@H]1O[C@@H](n2cnc3c(NCCc4cn(C5CCCC5)c5ccccc45)ncnc32)[C@H](O)[C@@H]1O [Example 64] | rat central A1 adenosinergic receptors (Rattus norvegicus, UniProt P25099) | 96 |

---

Target: rat central A1 adenosinergic receptors (Rattus norvegicus, UniProt P25099)
Construct: After the animal has been sacrificed by decapitation, the brain is quickly removed and washed in cold isotonic solution; from tissue; host or cells: rat brain, membrane preparation from the two hemispheres
Assay: Binding to adenosine A1 receptors ([3H] PIA displacement)
Conditions: 1E-5M; [3H] PIA 2.5 nM; n=3; read-out: % displacement of the labeled ligand, A1, 1E-5M
Measured inhibition at 10 µM, listed per entry for reference.

| molecule | inhibition at 10 µM [%] |
| --- | --- |
| COc1ccc2c(c1)c(CCNc1ncnc3c1ncn3[C@@H]1O[C@H](C(=O)NC3CC3)[C@@H](O)[C@H]1O)cn2Cc1cc(C)ccc1C [Example 86] | 100 |
| CC(Cc1cn(C2CCCC2)c2ccccc12)Nc1ncnc2c1ncn2[C@@H]1O[C@H](C(=O)NC2CC2)[C@@H](O)[C@H]1O (stereo partly drawn) [Example 93] | 96 |
| O=C(NC1CC1)[C@H]1O[C@@H](n2cnc3c(NCCc4cn(CCN5CCOCC5)c5ccccc45)ncnc32)[C@H](O)[C@@H]1O [Example 69] | 93 |

---

# inhibition at 10 µM per entry
Biological target: rat central A1 adenosinergic receptors (Rattus norvegicus)
Construct: After the animal has been sacrificed by decapitation, the brain is quickly removed and washed in cold isotonic solution; from tissue; host or cells: rat brain, membrane preparation from the two hemispheres
Sequence (P25099 1-326): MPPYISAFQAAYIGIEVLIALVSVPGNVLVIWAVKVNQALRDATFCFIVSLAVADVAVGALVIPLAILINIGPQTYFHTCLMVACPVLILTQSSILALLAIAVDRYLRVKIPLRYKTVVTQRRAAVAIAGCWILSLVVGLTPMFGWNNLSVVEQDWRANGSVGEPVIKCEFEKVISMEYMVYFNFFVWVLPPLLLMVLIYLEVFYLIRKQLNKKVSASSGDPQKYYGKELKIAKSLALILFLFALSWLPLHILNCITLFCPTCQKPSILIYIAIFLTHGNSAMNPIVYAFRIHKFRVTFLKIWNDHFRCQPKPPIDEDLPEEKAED
Assay: Binding to adenosine A1 receptors ([3H] PIA displacement)
Settings: 1E-5M; [3H] PIA 2.5 nM; n=3; read-out: % displacement of the labeled ligand, A1, 1E-5M
Method: The affinity of the products of the Examples for the rat central A1 and A2 adenosinergic receptors is determined by the competitive technique using a radioactive ligand specifically bound either to the A1 receptors ([^3 H] PIA) or to the A2 receptors ([^3 H] NECA). […] The filters are then transferred to counting flasks and 10 ml of liquid scintillator (Ready Solv HP/b, Beckman) are added. […]
endpoint_label: inhibition at 10 µM (%)

| molecule | endpoint_label | unit_spec | reported_value |
| --- | --- | --- | --- |
| Cc1ccc(C)c(Cn2cc(CCNc3ncnc4c3ncn4[C@@H]3O[C@H](C(=O)NC4CC4)[C@@H](O)[C@H]3O)c3ccccc32)c1 [Example 68] | inhibition at 10 µM | % | 93 |
| Cc1ccc(C)c(Cn2cc(CCNc3ncnc4c3ncn4[C@@H]3O[C@H](C(=O)NC4CC4)[C@@H](O)[C@H]3O)c3cc(C)ccc32)c1 [Example 85] | inhibition at 10 µM | % | 100 |
| CN(C)CCn1cc(CCNc2ncnc3c2ncn3[C@@H]2O[C@H](C(=O)NC3CC3)[C@@H](O)[C@H]2O)c2ccccc21 [Example 70] | inhibition at 10 µM | % | 100 |
| Cc1ccc(Cn2cc(CCNc3ncnc4c3ncn4[C@@H]3O[C@H](C(=O)NC4CC4)[C@@H](O)[C@H]3O)c3ccccc32)cc1 [Example 66] | inhibition at 10 µM | % | 97 |
| Cc1ccc(Cn2cc(CCNc3ncnc4c3ncn4[C@@H]3O[C@H](C(=O)NC4CC4)[C@@H](O)[C@H]3O)c3ccccc32)cc1C [Example 67] | inhibition at 10 µM | % | 96 |
| COCCn1cc(CCNc2ncnc3c2ncn3[C@@H]2O[C@H](C(=O)NC3CC3)[C@@H](O)[C@H]2O)c2ccccc21 [Example 63] | inhibition at 10 µM | % | 98 |
